Hello, the source for this data is ChEMBL document CHEMBL1154345, in case you need it.

# PROTOCOL_TEXT: in vitro
# CONDITION_DETAILS: human, liver microsomes
# Description: Metabolic stability in human liver microsomes assessed as compound remaining after 60 mins at 1 uM
PROPERTY_LABEL: remaining at 1 h, 1 µM (%)

{"MOLECULE": "CS(=O)(=O)Nc1ccc2c(c1)S(=O)(=O)N=C(C1=C(O)[C@@H]3[C@H]4CC[C@H](C4)[C@@H]3N(Cc3ccc(F)c(Cl)c3)C1=O)N2", "VALUE": 87}
{"MOLECULE": "CS(=O)(=O)Nc1ccc2c(c1)S(=O)(=O)N=C(C1=C(O)[C@@H]3[C@@H]4CC[C@@H](C4)[C@@H]3N(Cc3ccc(F)c(F)c3F)C1=O)N2", "VALUE": 87}
{"MOLECULE": "CS(=O)(=O)Nc1ccc2c(c1)S(=O)(=O)N=C(C1=C(O)[C@@H]3[C@H]4CC[C@H](C4)[C@@H]3N(Cc3ccccc3Cl)C1=O)N2", "VALUE": 100}
{"MOLECULE": "CS(=O)(=O)Nc1ccc2c(c1)S(=O)(=O)N=C(C1=C(O)[C@@H]3[C@H]4CC[C@H](C4)[C@@H]3N(Cc3ccccc3F)C1=O)N2", "VALUE": 89}
{"MOLECULE": "Cc1cc(CN2C(=O)C(C3=NS(=O)(=O)c4cc(NS(C)(=O)=O)ccc4N3)=C(O)[C@@H]3[C@H]4CC[C@H](C4)[C@@H]32)ccc1F", "VALUE": 70}
{"MOLECULE": "Cc1cc(CN2C(=O)C(C3=NS(=O)(=O)c4cc(NS(C)(=O)=O)ccc4N3)=C(O)[C@@H]3C4CCC(CC4)[C@@H]32)ccc1F", "VALUE": 81}
{"MOLECULE": "CS(=O)(=O)Nc1ccc2c(c1)S(=O)(=O)N=C(C1=C(O)[C@@H]3[C@@H]4CC[C@@H](C4)[C@@H]3N(Cc3ccc(F)c(Cl)c3)C1=O)N2", "VALUE": 100}
{"MOLECULE": "CS(=O)(=O)Nc1ccc2c(c1)S(=O)(=O)N=C(C1=C(O)[C@@H]3C4CCC(CC4)[C@@H]3N(Cc3cccc(F)c3F)C1=O)N2", "VALUE": 75}
{"MOLECULE": "Cc1ccc(CN2C(=O)C(C3=NS(=O)(=O)c4cc(NS(C)(=O)=O)ccc4N3)=C(O)[C@@H]3[C@H]4CC[C@H](C4)[C@@H]32)cc1F", "VALUE": 78}
{"MOLECULE": "CS(=O)(=O)Nc1ccc2c(c1)S(=O)(=O)NC(C1=C(O)[C@@H]3[C@@H]4CC[C@@H](C4)[C@@H]3N(Cc3ccccc3)C1=O)=N2", "VALUE": 90}
{"MOLECULE": "COc1cccc(CN2C(=O)C(C3=NS(=O)(=O)c4cc(NS(C)(=O)=O)ccc4N3)=C(O)[C@@H]3[C@H]4CC[C@H](C4)[C@@H]32)c1", "VALUE": 61}
{"MOLECULE": "CS(=O)(=O)Nc1ccc2c(c1)S(=O)(=O)N=C(C1=C(O)[C@@H]3C4CCC(CC4)[C@@H]3N(Cc3ccccc3Cl)C1=O)N2", "VALUE": 100}
{"MOLECULE": "CS(=O)(=O)Nc1ccc2c(c1)S(=O)(=O)N=C(C1=C(O)[C@@H]3[C@H]4CC[C@H](C4)[C@@H]3N(Cc3ccccc3)C1=O)N2", "VALUE": 80}
{"MOLECULE": "CS(=O)(=O)Nc1ccc2c(c1)S(=O)(=O)N=C(C1=C(O)[C@@H]3C4CCC(CC4)[C@@H]3N(Cc3ccccc3F)C1=O)N2", "VALUE": 81}
{"MOLECULE": "CS(=O)(=O)Nc1ccc2c(c1)S(=O)(=O)NC(C1=C(O)[C@@H]3[C@@H]4CC[C@@H](C4)[C@@H]3N(Cc3ccc(F)c(F)c3)C1=O)=N2", "VALUE": 97}
{"MOLECULE": "CS(=O)(=O)Nc1ccc2c(c1)S(=O)(=O)N=C(C1=C(O)[C@@H]3C4CCC(CC4)[C@@H]3N(Cc3cc(Cl)ccc3F)C1=O)N2", "VALUE": 100}
{"MOLECULE": "CS(=O)(=O)Nc1ccc2c(c1)S(=O)(=O)N=C(C1=C(O)[C@@H]3C4CCC(CC4)[C@@H]3N(Cc3ccco3)C1=O)N2", "VALUE": 96}
{"MOLECULE": "CS(=O)(=O)Nc1ccc2c(c1)S(=O)(=O)N=C(C1=C(O)[C@@H]3C4CCC(CC4)[C@@H]3N(Cc3ccc(F)c(Cl)c3)C1=O)N2", "VALUE": 100}
{"MOLECULE": "CS(=O)(=O)Nc1ccc2c(c1)S(=O)(=O)N=C(C1=C(O)C3CC=CCC3N(Cc3ccc(F)cc3)C1=O)N2 (racemic)", "VALUE": 87}
{"MOLECULE": "COc1cccc(CN2C(=O)C(C3=NS(=O)(=O)c4cc(NS(C)(=O)=O)ccc4N3)=C(O)[C@@H]3[C@@H]4CC[C@@H](C4)[C@@H]32)c1", "VALUE": 83}
{"MOLECULE": "CS(=O)(=O)Nc1ccc2c(c1)S(=O)(=O)N=C(C1=C(O)[C@@H]3[C@@H]([C@H]4CC[C@@H]3O4)N(Cc3ccc(F)cc3)C1=O)N2", "VALUE": 100}
{"MOLECULE": "CS(=O)(=O)Nc1ccc2c(c1)S(=O)(=O)N=C(C1=C(O)[C@@H]3[C@@H]4CC[C@@H](C4)[C@@H]3N(Cc3ccccc3F)C1=O)N2", "VALUE": 83}
{"MOLECULE": "Cc1cc(CN2C(=O)C(C3=Nc4ccc(NS(C)(=O)=O)cc4S(=O)(=O)N3)=C(O)[C@@H]3[C@@H]4CC[C@@H](C4)[C@@H]32)ccc1F", "VALUE": 65}
{"MOLECULE": "CS(=O)(=O)Nc1ccc2c(c1)S(=O)(=O)N=C(C1=C(O)[C@@H]3[C@H]4CC[C@H](C4)[C@@H]3N(Cc3ccc(F)c(F)c3F)C1=O)N2", "VALUE": 100}
